# procedure_details: serotonin-gated TRPC4 signal block – cell-based, second counter screen, HEK293 TRPC4/5HT1a, Fluo-4, counter-screen for TRPC4 inhibitor project, confirmation (AID 434978)
# assay_context: Fluo-4 calcium flux, at 10 µM, serotonin added to trigger calcium flux
Calls of active or inactive are those of the source.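 Rule for the calls: active = primary screen active whose calcium signal fell more than 3 SD beyond the full-serotonin control mean in both duplicate plates; inactive = the rest.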
Hi there, use one of these labels in your reply, thanks! active, inactive

Worked examples follow.
- molecule: "Cc1cc2cc(C#N)c(NCCNC(=S)NCCCN3CCOCC3)nc2cc1C"
  category: "active"
- molecule: "C=CCNC(=S)N1CCN(CCN=Cc2c(C)[nH]n(-c3ccc([N+](=O)[O-])cc3)c2=O)CC1"
  category: "inactive"
- molecule: "Clc1ccc(COc2ccccc2CNCc2cccnc2)cc1"
  category: "active"
- molecule: "Cc1c(C(=O)NCCc2ccccc2)oc2ccccc12"
  category: "inactive"
- molecule: "CN(Cc1ccccc1)C(=O)c1oc(=O)c2ccccc2c1-c1ccccc1"
  category: "inactive"
- molecule: "C=CCOc1ccc(C2CC(C)=NN2c2ccccc2)cc1 (configuration not stated)"
  category: "active"
- molecule: "COC(=O)c1c(NC(=O)CSc2ncn[nH]2)sc(C)c1C"
  category: "inactive"
- molecule: "COc1ccccc1CC(=O)N1CCN(S(=O)(=O)c2ccccc2)CC1"
  category: "inactive"

What did the test return for "COc1ccccc1N1CCc2c(C)nc3c(OC)cccc3c21" ?
active

In this assay, the call recorded for "C=CCn1c(SCCN2CCOCC2)nc2c1c(=O)[nH]c(=O)n2C" was what?
inactive

Dear colleague, could you share the recorded outcome for "CCCCNCc1cc(Cl)c(OCCC)c(OCC)c1" when you have a moment?
inactive

Per the records of this test, what outcome belongs to "CCCCOc1ccc(Nc2cc(Cl)ccc2C(=O)O)cn1" ?
active

====

# Tested on: TRPC4 beta (transient receptor potential cation channel C4), mouse
# procedure_details: TRPC4 cation channel opening, retest – cell-based, Fluo4 calcium, HEK293 TRPC4beta/mu-opioid, duplicates, 10 µM, confirmation (AID 2426);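 for activation: percent rise of integrated ratio over buffer wells lacking compound which define 0%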
# assay_context: Fluo4 calcium fluorescence, at 10 µM; hits give high values
The source made the active and inactive calls.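 Rule for the calls: active = fluorescence ratio normalized to control raised more than 50% in primary screen plus both repeat runs; inactive = the rest.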
measured_property: activation

- molecule: "CC1CC(C)CN(CCCNC(=O)c2ccc(N3CCCC3=O)cc2)C1 (configuration not stated)"
  value_measured: "inactive"
- molecule: "CCC(C)NC(C(=O)Nc1ccc(Cl)c([N+](=O)[O-])c1)c1ccccc1 (configuration not stated)"
  value_measured: "inactive"
- molecule: "CCOC(=O)C1(CCOC)CCN(Cc2ccccc2-c2ccco2)CC1"
  value_measured: "60% (active)"
- molecule: "CCOC(=O)C1(Cc2cccc(F)c2)CCN(Cc2cnn(CC)c2)CC1"
  value_measured: "118% (active)"
- molecule: "CN1C(CC(=O)Nc2ccc(Br)cc2)c2ccccc2CC1(C)C (configuration not stated)"
  value_measured: "97% (active)"
- molecule: "CC(Nc1nc(N2CCNCC2)nc2ccccc12)c1ccccc1 (configuration not stated)"
  value_measured: "inactive"
- molecule: "CCOC(=O)CC(NC(=O)c1cc2cc(Cl)cc(Cl)c2oc1=O)c1cccc([N+](=O)[O-])c1 (configuration not stated)"
  value_measured: "inactive"
- molecule: "CCOC(=O)C1(Cc2cccc(OC)c2)CCN(Cc2cccc(O)c2)CC1"
  value_measured: "inactive"

Give TRPC4 beta (transient receptor potential cation channel C4), mouse activation for CCOC(=O)c1c(NC(NC(C)=O)C(Cl)(Cl)Cl)sc2c1CCCC2 (configuration not stated)
inactive

Form: Entry = "N=c1sccn1CC(=O)Nc1ccccc1Oc1ccccc1" | System = TRPC4 beta (transient receptor potential cation channel C4), mouse | activation = ____
inactive

Recorded activation for "O=C(O)c1ccc(-c2ccc(/C=N/Nc3ccc([N+](=O)[O-])cc3)o2)cc1" with TRPC4 beta (transient receptor potential cation channel C4), mouse, please?
120% (active)

All values here come from PubChem BioAssay.
